- protocol.text: chemical genetic growth profiling, strain panel (AID 1159580);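 also: tested at 20 µM; growth read once vehicle control cultures reached saturation at 30 °C; 1 = growth at the plate median or of vehicle wells; lower values mean less growth of the strain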
- study.conditions: S. cerevisiae deletion strains, growth OD, locus YAL021C, strain ccr4, active compounds read low
Out of some 5,500 compounds screened, about 2,000 (36%) were called active. Another 18% or so got no clear call; they are omitted. This is one part of the list.
observed.property: normalized growth

molecule | reading
NCCS(=O)(=O)O | 0.965
CN1C2CCC1CC(OC(c1ccccc1)c1ccccc1N)C2 (stereo not drawn) | 0.985
C=C[C@@](C)(O)CCC1C(=C)C[C@H](OC(C)=O)C2C(C)(C)CCCC12C (stereo partly drawn) | 1.03

###

// values below are reported normalized growth
- protocol.text: chemical genetic growth profiling, strain panel (AID 1159580);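 also: tested at 20 µM; growth read once vehicle control cultures reached saturation at 30 °C; 1 = growth at the plate median or of vehicle wells; lower values mean less growth of the strain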
- study.conditions: S. cerevisiae deletion strains, growth OD, locus YPL078C, strain atp4, active compounds read low
Out of some 5,500 compounds screened, about 2,000 (36%) were called active. Another 18% or so got no clear call; they are omitted. The list shows a part of the results.

molecule | normalized growth
c1ccc2c(c1)CCCC2C1=NCCN1 (stereo unspecified) | 1.01
Cc1ccccc1C(OCCN(C)C)c1ccccc1 (stereo unspecified) | 1
O=C1NCC2(CCN(CCc3ccccc3)CC2)O1 | 0.991
CN(C)CCOC(c1ccc(Cl)cc1)c1ccccn1 (stereo unspecified) | 1.02
Clc1ccc(C(OCCN2CCCCC2)c2ccccc2)cc1 (stereo unspecified) | 1.02
COc1ccc2c(c1)OC1(O)COc3cc(OC)c(OC)cc3C1=C2 (stereo unspecified) | 0.999
